measured_on: Phospho-EGFR (Tyr1068) in H1975 C797S cells (Homo sapiens, UniProt P00533, C797S/L858R/T790M)
Construct: endogenous in cells
Sequence (P00533 25-1210 T790M/C797S/L858R): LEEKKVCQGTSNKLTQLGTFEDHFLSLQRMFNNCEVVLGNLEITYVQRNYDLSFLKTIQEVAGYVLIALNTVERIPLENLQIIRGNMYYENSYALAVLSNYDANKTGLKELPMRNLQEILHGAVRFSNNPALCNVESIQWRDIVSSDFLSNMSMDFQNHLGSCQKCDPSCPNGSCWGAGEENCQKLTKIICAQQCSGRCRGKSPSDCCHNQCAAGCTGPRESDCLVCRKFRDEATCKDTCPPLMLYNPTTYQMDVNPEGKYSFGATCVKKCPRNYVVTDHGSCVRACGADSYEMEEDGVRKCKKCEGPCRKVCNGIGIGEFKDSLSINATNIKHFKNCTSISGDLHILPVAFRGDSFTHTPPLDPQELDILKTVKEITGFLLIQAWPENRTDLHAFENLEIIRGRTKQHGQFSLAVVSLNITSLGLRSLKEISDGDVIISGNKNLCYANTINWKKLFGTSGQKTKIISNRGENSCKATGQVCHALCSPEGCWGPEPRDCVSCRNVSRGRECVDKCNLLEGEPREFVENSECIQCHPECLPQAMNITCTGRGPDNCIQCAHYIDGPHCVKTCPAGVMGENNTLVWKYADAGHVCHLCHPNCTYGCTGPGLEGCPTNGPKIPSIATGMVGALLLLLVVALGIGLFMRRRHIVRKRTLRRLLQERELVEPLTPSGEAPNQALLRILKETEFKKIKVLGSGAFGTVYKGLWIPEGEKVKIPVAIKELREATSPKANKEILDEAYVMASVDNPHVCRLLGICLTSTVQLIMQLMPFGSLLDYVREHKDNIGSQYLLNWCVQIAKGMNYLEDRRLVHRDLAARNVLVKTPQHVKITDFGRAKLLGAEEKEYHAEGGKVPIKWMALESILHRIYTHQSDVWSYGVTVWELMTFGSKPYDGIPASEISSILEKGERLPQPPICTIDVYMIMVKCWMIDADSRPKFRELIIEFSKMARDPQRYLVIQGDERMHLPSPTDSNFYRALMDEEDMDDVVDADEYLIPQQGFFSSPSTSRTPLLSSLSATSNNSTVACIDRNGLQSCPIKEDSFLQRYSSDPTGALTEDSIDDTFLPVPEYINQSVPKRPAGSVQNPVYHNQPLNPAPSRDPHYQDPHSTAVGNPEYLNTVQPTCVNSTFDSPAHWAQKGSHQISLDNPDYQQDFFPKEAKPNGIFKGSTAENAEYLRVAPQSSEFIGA
test_method_notes: HTRF pEGFR/total EGFR assay in H1975 C797S cells
cond: H1975 C797S cells (CRISPR), compound 3 hours, ratio pEGFR/total EGFR

- compound: "C#Cc1cc(NC(=O)NC2CCCC2)nc2nc(Nc3cccc(N(C)[C@H]4CC[C@H](CS(C)(=O)=O)CC4)c3)ncc12 [Example 121]"
  IC50: "< 0.5 µM"
- compound: "C#Cc1cc(Nc2nccn2C2CCCC2)nc2nc(Nc3ccc(N4CCN(C)CC4)cc3)ncc12 [Example 27]"
  IC50: "> 3 µM"
- compound: "C#Cc1cc(OC2CC2)nc2nc(Nc3ccc(N4CCN(C)CC4)cc3)ncc12 [Example 16]"
  IC50: "> 3 µM"
- compound: "C#Cc1cc(NC(=O)Cc2ccccc2)nc2nc(Nc3ccc(N4CCN(C)CC4)cc3)ncc12 [Example 30]"
  IC50: "1 to 3 µM"
- compound: "C#Cc1cc(NC(=O)N[C@@H]2CCN(C(C)=O)C2)nc2nc(Nc3ccc(N4CCN(C)CC4)cc3)ncc12 [Example 52]"
  IC50: "> 3 µM"
- compound: "C#Cc1cc(NC(=O)NC2CCCC2)nc2nc(Nc3cccc(CN4CCC(CS(C)(=O)=O)C4)c3)ncc12 (stereo not shown) [Example 86]"
  IC50: "0.5 to 1 µM"
- compound: "C#Cc1cc(N2C(=O)NC[C@@H]2C(C)C)nc2nc(Nc3ccc(N4CCN(C)CC4)cc3)ncc12 [Example 99]"
  IC50: "< 0.5 µM"
- compound: "C#Cc1cc(NC(=O)OCc2ccccc2)nc2nc(Nc3ccc(N4CCN(C)CC4)cc3)ncc12 [Example 67]"
  IC50: "> 3 µM"
- compound: "C#Cc1cc(NC(=O)N(C)C2CCCC2)nc2nc(Nc3ccc(N4CCN(C)CC4)cc3)ncc12 [Example 74]"
  IC50: "> 3 µM"
- compound: "C#Cc1cc(N2C(=O)N(C)CC23CCCC3)nc2nc(Nc3ccc(S(C)(=O)=O)cc3)ncc12 [Example 108]"
  IC50: "> 3 µM"
- compound: "C#Cc1cc(N2CC(C(C)C)OC2=O)nc2nc(Nc3ccc(N4CCN(C)CC4)cc3)ncc12 (stereo not shown) [Example 113]"
  IC50: "1 to 3 µM"
- compound: "C#Cc1cc(NC(=O)NC2CCCC2)nc2nc(Nc3ccccc3N3CCCC(CS(C)(=O)=O)C3)ncc12 (stereo not shown) [Example 118]"
  IC50: "> 3 µM"
- compound: "C#Cc1cc(NC(=O)NC2CCCC2)nc2nc(Nc3ccccc3N3CCC(CS(C)(=O)=O)C3)ncc12 (stereo not shown) [Example 89]"
  IC50: "> 3 µM"
- compound: "C#Cc1cc(N2C(=O)NCC23CCCC3)nc2nc(Nc3ccc(S(C)(=O)=O)cc3)ncc12 [Example 96]"
  IC50: "1 to 3 µM"
- compound: "C#Cc1cc(N2C(=O)OCC2C(C)C)nc2nc(Nc3ccc(N4CCN(C)CC4)cc3)ncc12 (stereo not shown) [Example 68]"
  IC50: "1 to 3 µM"
- compound: "C#Cc1cc(NC(=O)NC2CCC2)nc2nc(Nc3ccc(N4CCN(C)CC4)cc3)ncc12 [Example 41]"
  IC50: "< 0.5 µM"
- compound: "C#Cc1cc(NC(C)=O)nc2nc(Nc3ccc(N(C)CCN(C)C)cc3)ncc12 [Example 28]"
  IC50: "> 3 µM"
- compound: "C#Cc1c(C)c(OCC2CCCC2)nc2nc(Nc3ccc(N4CCN(C)CC4)cc3)ncc12 [Example 23]"
  IC50: "> 3 µM"
- compound: "C#Cc1cc(NC(=O)c2ccccc2)nc2nc(Nc3ccc(N4CCN(C)CC4)cc3)ncc12 [Example 29]"
  IC50: "> 3 µM"
- compound: "C#Cc1cc(NC(=O)NC2CCCC2)nc2nc(Nc3ccc(OCCN(C)C)cc3)ncc12 [Example 79]"
  IC50: "< 0.5 µM"
- compound: "C#Cc1cc(NC(=O)NC2CCCC2)nc2nc(Nc3cccc4c3CCN(C)C4)ncc12 [Example 88]"
  IC50: "> 3 µM"
- compound: "C#Cc1cc(OCc2ccccc2)nc2nc(Nc3ccc(N4CCN(C)CC4)cc3)ncc12 [Example 20]"
  IC50: "> 3 µM"
- compound: "C#Cc1c(C)c(NC(=O)NC2CCCC2)nc2nc(Nc3ccc(N4CCN(C)CC4)cc3)ncc12 [Example 72]"
  IC50: "1 to 3 µM"
- compound: "C#Cc1cc(N2C(=O)N(C)CC23CCCC3)nc2nc(Nc3ccc(S(=O)(=O)N(C)CCN(C)C)cc3)ncc12 [Example 110]"
  IC50: "> 3 µM"
- compound: "C#Cc1cc(NC(=O)NCC2CCCC2)nc2nc(Nc3ccc(N4CCN(C)CC4)cc3)ncc12 [Example 40]"
  IC50: "< 0.5 µM"
- compound: "C#Cc1cc(NC(=O)NC2COC2)nc2nc(Nc3ccc(N4CCN(C)CC4)cc3)ncc12 [Example 43]"
  IC50: "< 0.5 µM"
- compound: "C#Cc1cc(N2C(=O)NCC2C(C)C)nc2nc(Nc3ccc(N4CCN(C)CC4)cc3)ncc12 (stereo not shown) [Example 64]"
  IC50: "1 to 3 µM"
- compound: "C#Cc1cc(-n2ccnc2)nc2nc(Nc3ccc(N4CCN(C)CC4)cc3)ncc12 [Example 35]"
  IC50: "> 3 µM"
- compound: "C#Cc1cc(NC(=O)NC2CCCC2)nc2nc(Nc3cccc4c3CN(C)C4)ncc12 [Example 117]"
  IC50: "> 3 µM"
- compound: "C#Cc1cc(N2C(=O)OCC2COC)nc2nc(Nc3ccc(N4CCN(C)CC4)cc3)ncc12 (stereo not shown) [Example 116]"
  IC50: "0.5 to 1 µM"
- compound: "C#Cc1cc(NC(=O)N(C)C)nc2nc(Nc3ccc(N4CCN(C)CC4)cc3)ncc12 [Example 37]"
  IC50: "> 3 µM"
